Measured IC50, listed per entry for reference.
TARGET_SYSTEM: BRAF (Homo sapiens (Human))
Sequence (P15056 whole entry): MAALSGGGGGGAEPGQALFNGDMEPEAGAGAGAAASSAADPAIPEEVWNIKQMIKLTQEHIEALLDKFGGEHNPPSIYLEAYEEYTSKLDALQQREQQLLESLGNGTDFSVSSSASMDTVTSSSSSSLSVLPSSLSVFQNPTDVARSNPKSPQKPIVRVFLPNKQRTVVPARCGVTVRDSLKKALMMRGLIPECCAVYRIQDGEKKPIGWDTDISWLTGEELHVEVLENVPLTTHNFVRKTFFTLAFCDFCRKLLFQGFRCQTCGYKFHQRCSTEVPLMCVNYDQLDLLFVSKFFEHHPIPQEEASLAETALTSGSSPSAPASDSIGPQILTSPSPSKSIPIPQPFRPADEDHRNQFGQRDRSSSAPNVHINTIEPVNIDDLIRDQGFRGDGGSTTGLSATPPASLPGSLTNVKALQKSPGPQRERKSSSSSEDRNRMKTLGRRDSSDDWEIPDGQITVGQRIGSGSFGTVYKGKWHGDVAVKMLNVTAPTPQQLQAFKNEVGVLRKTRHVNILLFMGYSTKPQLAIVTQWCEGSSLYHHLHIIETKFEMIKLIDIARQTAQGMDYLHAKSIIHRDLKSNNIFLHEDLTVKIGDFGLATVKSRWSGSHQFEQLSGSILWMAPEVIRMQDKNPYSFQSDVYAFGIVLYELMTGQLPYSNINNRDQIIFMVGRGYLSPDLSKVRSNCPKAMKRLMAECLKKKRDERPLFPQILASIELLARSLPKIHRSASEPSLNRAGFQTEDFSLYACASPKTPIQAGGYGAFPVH
PROTOCOL_TEXT: BRAF kinase activity assay (ADP-Glo)
Assay type: biochemical
TEST_SETTINGS: read-out: Kinase IC50 (nM) BRAF
TEST_READOUT: IC50

INSERT INTO results (sample_smiles, result) VALUES
  ('O=S(=O)(Nc1ccc(F)c(Nc2ncnc3ccc(-n4cnc5c(-c6cccnc6)cccc54)nc23)c1F)c1ccccc1Cl', '1 to 10 nM'),
  ('Cc1c(Cl)cccc1S(=O)(=O)Nc1ccc(F)c(Nc2ncnc3ccc(-n4cnc5c(O)cccc54)nc23)c1F', '< 1 nM'),
  ('NCc1cccc2c1ncn2-c1ccc2ncnc(Nc3c(F)ccc(NS(=O)(=O)c4ccccc4Cl)c3F)c2n1', '< 1 nM'),
  ('Cc1c(Cl)csc1S(=O)(=O)Nc1ccc(F)c(Nc2ncnc3ccc(-n4cnc5ccccc54)nc23)c1F', '1 to 10 nM'),
  ('COc1ccc(S(=O)(=O)Nc2ccc(F)c(Nc3ncnc4ccc(-n5cnc6c(C(N)=O)cccc65)nc34)c2F)c(C)c1', '> 10 nM'),
  ('Nc1nc(-c2ccc3ncnc(Nc4c(F)ccc(NS(=O)(=O)c5ccccc5Cl)c4F)c3n2)cs1', '> 10 nM'),
  ('O=S(=O)(Nc1ccc(F)c(Nc2ncnc3ccc(-n4cnc5ccccc54)nc23)c1F)c1ccccc1Cl', '1 to 10 nM'),
  ('NCC(=O)c1cn(-c2ccc3ncnc(Nc4c(F)ccc(NS(=O)(=O)c5ccccc5Cl)c4F)c3n2)c2ccccc12', '1 to 10 nM'),
  ('CC(C)NCc1cccc2c1ncn2-c1ccc2ncnc(Nc3c(F)ccc(NS(=O)(=O)c4ccccc4Cl)c3F)c2n1', '1 to 10 nM'),
  ('O=S(=O)(Nc1ccc(F)c(Nc2ncnc3ccc(-n4nc(-c5nnc(O)o5)c5ccccc54)nc23)c1F)c1cccc(Cl)c1Cl', '1 to 10 nM'),
  ('CN(C)c1nnc(-c2nn(-c3ccc4ncnc(Nc5c(F)ccc(NS(=O)(=O)c6cccc(Cl)c6Cl)c5F)c4n3)c3ccccc23)o1', '1 to 10 nM'),
  ('CN(C)C(=O)c1cn(-c2ccc3ncnc(Nc4c(F)ccc(NS(=O)(=O)c5ccccc5Cl)c4F)c3n2)c2cccc(N)c12', '< 1 nM'),
  ('Nc1cccc2c1ncn2-c1ccc2ncnc(Nc3c(F)ccc(NS(=O)(=O)c4cccc(Cl)c4Cl)c3F)c2n1', '< 1 nM'),
  ('COc1ccc(S(=O)(=O)Nc2ccc(F)c(Nc3ncnc4ccc(-c5cnn6ccccc56)nc34)c2F)c(C)c1', '> 10 nM');

* * *

System: Mewo cells (NF1 LOF)
PROTOCOL_TEXT: Proliferation inhibition (CellTiter-Glo), Mewo
Assay type: cell-based, human
TEST_SETTINGS: 3 days, read-out: Mewo Prolif. EC50
In this section, each of the compounds is paired with its reported EC50.
TEST_READOUT: EC50

INSERT INTO measurements (compound, test_readout, result) VALUES
  ('CC1(O)CCN(c2cccc3c2ncn3-c2ccc3ncnc(Nc4c(F)ccc(NS(=O)(=O)c5cccc(Cl)c5Cl)c4F)c3n2)CC1 [Example 524]', 'EC50', '< 30 nM'),
  ('Nc1cccc2c1ncn2-c1ccc2ncnc(Nc3c(F)ccc(NS(=O)(=O)c4cccc(Cl)c4Cl)c3F)c2n1 [Example 99]', 'EC50', '< 30 nM');

* * *

Test system: pERK in SW480 cells (KRAS G12D)
PROTOCOL_TEXT: Phospho-ERK inhibition (AlphaLISA), SW480
Format: cell-based, human
TEST_SETTINGS: SW480 cells; class symbol before the bracket
pIC50: −log10 of the molar value.
TEST_READOUT: pIC50

INSERT INTO assay_data (compound, target_system, result) VALUES
  ('COc1ccc(S(=O)(=O)Nc2ccc(F)c(Nc3ncnc4ccc(-n5cnc6c(NC(C)=O)cccc65)nc34)c2F)c(C)c1 [Ex 79]', 'pERK in SW480 cells (KRAS G12D)', '6.00 to 6.30'),
  ('COc1cncc(-c2ccc3ncnc(Nc4c(F)ccc(NS(=O)(=O)c5ccc(OC)cc5C)c4F)c3n2)c1 [Ex 62]', 'pERK in SW480 cells (KRAS G12D)', '5.00 to 6.00'),
  ('NC(=O)c1ccc(-c2ccc3ncnc(Nc4c(F)ccc(NS(=O)(=O)c5ccccc5Cl)c4F)c3n2)cc1 [Example 81]', 'pERK in SW480 cells (KRAS G12D)', '5.00 to 6.00'),
  ('COc1ccc(S(=O)(=O)Nc2ccc(F)c(Nc3ncnc4ccc(-c5cnc6ccccc6c5)nc34)c2F)c(C)c1 [Ex 61]', 'pERK in SW480 cells (KRAS G12D)', '5.00 to 6.00'),
  ('Nc1cccc2c1ncn2-c1ccc2ncnc(Nc3c(F)ccc(NS(=O)(=O)c4cccc(Cl)c4Cl)c3F)c2n1 [Example 99]', 'pERK in SW480 cells (KRAS G12D)', '> 6.30'),
  ('Cc1c(Cl)cccc1S(=O)(=O)Nc1ccc(F)c(Nc2ncnc3ccc(-n4nc(C(=O)N5CCNCC5)c5ccccc54)nc23)c1F [Example 127]', 'pERK in SW480 cells (KRAS G12D)', '> 6.30'),
  ('COc1ccc(S(=O)(=O)Nc2ccc(F)c(Nc3ncnc4ccc(-n5cnc6c(N)cccc65)nc34)c2F)c(C)c1 [Ex 76]', 'pERK in SW480 cells (KRAS G12D)', '> 6.30'),
  ('Cc1c([N+](=O)[O-])ncn1-c1ccc2ncnc(Nc3c(F)ccc(NS(=O)(=O)c4ccccc4Cl)c3F)c2n1 [Ex 82]', 'pERK in SW480 cells (KRAS G12D)', '5.00 to 6.00'),
  ('O=S(=O)(Nc1ccc(F)c(Nc2ncnc3ccc(-c4cncs4)nc23)c1F)c1ccccc1Cl [Ex 67]', 'pERK in SW480 cells (KRAS G12D)', '6.00 to 6.30'),
  ('NC(=O)c1cccc(-c2ccc3ncnc(Nc4c(F)ccc(NS(=O)(=O)c5ccccc5Cl)c4F)c3n2)c1 [Example 80]', 'pERK in SW480 cells (KRAS G12D)', '5.00 to 6.00'),
  ('O=C(c1cn(-c2ccc3ncnc(Nc4c(F)ccc(NS(=O)(=O)c5ccccc5Cl)c4F)c3n2)c2ccccc12)N1CCOCC1 [Example 109]', 'pERK in SW480 cells (KRAS G12D)', '> 6.30'),
  ('Nc1cccc2c1nnn2-c1ccc2ncnc(Nc3c(F)ccc(NS(=O)(=O)c4ccccc4Cl)c3F)c2n1 [Example 92]', 'pERK in SW480 cells (KRAS G12D)', '> 6.30'),
  ('COc1ccc(S(=O)(=O)Nc2ccc(F)c(Nc3ncnc4ccc(-c5ccc(OC)nc5)nc34)c2F)c(C)c1 [Example 71]', 'pERK in SW480 cells (KRAS G12D)', '5.00 to 6.00'),
  ('COc1ccc(S(=O)(=O)Nc2ccc(F)c(Nc3ncnc4ccc(-c5cnc(OC)nc5)nc34)c2F)c(C)c1 [Ex 57]', 'pERK in SW480 cells (KRAS G12D)', '5.00 to 6.00'),
  ('COc1ccc(S(=O)(=O)Nc2ccc(F)c(Nc3ncnc4ccc(-n5cc(C(N)=O)c6ccccc65)nc34)c2F)c(C)c1 [Example 69]', 'pERK in SW480 cells (KRAS G12D)', '5.00 to 6.00'),
  ('COc1ccc(S(=O)(=O)Nc2ccc(F)c(Nc3ncnc4ccc(-c5cnn6ccccc56)nc34)c2F)c(C)c1 [Ex 73]', 'pERK in SW480 cells (KRAS G12D)', '5.00 to 6.00'),
  ('COc1ccc(S(=O)(=O)Nc2ccc(F)c(Nc3ncnc4ccc(-c5cnn(C)c5)nc34)c2F)c(C)c1 [Ex 65]', 'pERK in SW480 cells (KRAS G12D)', '6.00 to 6.30'),
  ('COc1ccc(S(=O)(=O)Nc2ccc(F)c(Nc3ncnc4ccc(-c5cccc(CO)c5)nc34)c2F)c(C)c1 [Ex 74]', 'pERK in SW480 cells (KRAS G12D)', '5.00 to 6.00'),
  ('CN(C)C(=O)c1cn(-c2ccc3ncnc(Nc4c(F)ccc(NS(=O)(=O)c5ccccc5Cl)c4F)c3n2)c2cccc(N)c12 [Example 96]', 'pERK in SW480 cells (KRAS G12D)', '> 6.30'),
  ('COc1ccc(S(=O)(=O)Nc2ccc(F)c(Nc3ncnc4ccc(-n5cnc6c([N+](=O)[O-])cccc65)nc34)c2F)c(C)c1 [Example 70]', 'pERK in SW480 cells (KRAS G12D)', '5.00 to 6.00'),
  ('COc1ccc(S(=O)(=O)Nc2ccc(F)c(Nc3ncnc4ccc(-c5ccncc5)nc34)c2F)c(C)c1 [Ex 63]', 'pERK in SW480 cells (KRAS G12D)', '> 6.30'),
  ('COc1ccc(S(=O)(=O)Nc2ccc(F)c(Nc3ncnc4ccc(-n5cnc6c(C(N)=O)cccc65)nc34)c2F)c(C)c1 [Example 75]', 'pERK in SW480 cells (KRAS G12D)', '6.00 to 6.30'),
  ('COc1ccc(S(=O)(=O)Nc2ccc(F)c(Nc3ncnc4ccc(-c5cn[nH]c5)nc34)c2F)c(C)c1 [Ex 64]', 'pERK in SW480 cells (KRAS G12D)', '5.00 to 6.00'),
  ('COc1ccc(S(=O)(=O)Nc2ccc(F)c(Nc3ncnc4ccc(-c5ccsc5)nc34)c2F)c(C)c1 [Ex 58]', 'pERK in SW480 cells (KRAS G12D)', '5.00 to 6.00'),
  ('COc1ccc(S(=O)(=O)Nc2ccc(F)c(Nc3ncnc4ccc(-n5cnc(C)c5C)nc34)c2F)cc1 [Ex 32]', 'pERK in SW480 cells (KRAS G12D)', '5.00 to 6.00'),
  ('COc1ccc(S(=O)(=O)Nc2ccc(F)c(Nc3ncnc4ccc(-n5cnc6nccnc65)nc34)c2F)c(C)c1 [Ex 60]', 'pERK in SW480 cells (KRAS G12D)', '5.00 to 6.00'),
  ('COc1ccc(S(=O)(=O)Nc2ccc(F)c(Nc3ncnc4ccc(-c5cncnc5)nc34)c2F)c(C)c1 [Ex 56]', 'pERK in SW480 cells (KRAS G12D)', '6.00 to 6.30'),
  ('Cc1ncn(-c2ccc3ncnc(Nc4c(F)ccc(NS(=O)(=O)c5ccccc5Cl)c4F)c3n2)c1C [Ex 66]', 'pERK in SW480 cells (KRAS G12D)', '5.00 to 6.00');

Source of measurements: patent US12139488B2
